meta.source: patent US20130136748A1

A collection of binders and their measured MCF
biological target: human HER4 (human, UniProt Q15303 26-1308); assay: FACS CHO-HER4, 2000 nM
Sequence (Q15303 26-1308 limits assumed): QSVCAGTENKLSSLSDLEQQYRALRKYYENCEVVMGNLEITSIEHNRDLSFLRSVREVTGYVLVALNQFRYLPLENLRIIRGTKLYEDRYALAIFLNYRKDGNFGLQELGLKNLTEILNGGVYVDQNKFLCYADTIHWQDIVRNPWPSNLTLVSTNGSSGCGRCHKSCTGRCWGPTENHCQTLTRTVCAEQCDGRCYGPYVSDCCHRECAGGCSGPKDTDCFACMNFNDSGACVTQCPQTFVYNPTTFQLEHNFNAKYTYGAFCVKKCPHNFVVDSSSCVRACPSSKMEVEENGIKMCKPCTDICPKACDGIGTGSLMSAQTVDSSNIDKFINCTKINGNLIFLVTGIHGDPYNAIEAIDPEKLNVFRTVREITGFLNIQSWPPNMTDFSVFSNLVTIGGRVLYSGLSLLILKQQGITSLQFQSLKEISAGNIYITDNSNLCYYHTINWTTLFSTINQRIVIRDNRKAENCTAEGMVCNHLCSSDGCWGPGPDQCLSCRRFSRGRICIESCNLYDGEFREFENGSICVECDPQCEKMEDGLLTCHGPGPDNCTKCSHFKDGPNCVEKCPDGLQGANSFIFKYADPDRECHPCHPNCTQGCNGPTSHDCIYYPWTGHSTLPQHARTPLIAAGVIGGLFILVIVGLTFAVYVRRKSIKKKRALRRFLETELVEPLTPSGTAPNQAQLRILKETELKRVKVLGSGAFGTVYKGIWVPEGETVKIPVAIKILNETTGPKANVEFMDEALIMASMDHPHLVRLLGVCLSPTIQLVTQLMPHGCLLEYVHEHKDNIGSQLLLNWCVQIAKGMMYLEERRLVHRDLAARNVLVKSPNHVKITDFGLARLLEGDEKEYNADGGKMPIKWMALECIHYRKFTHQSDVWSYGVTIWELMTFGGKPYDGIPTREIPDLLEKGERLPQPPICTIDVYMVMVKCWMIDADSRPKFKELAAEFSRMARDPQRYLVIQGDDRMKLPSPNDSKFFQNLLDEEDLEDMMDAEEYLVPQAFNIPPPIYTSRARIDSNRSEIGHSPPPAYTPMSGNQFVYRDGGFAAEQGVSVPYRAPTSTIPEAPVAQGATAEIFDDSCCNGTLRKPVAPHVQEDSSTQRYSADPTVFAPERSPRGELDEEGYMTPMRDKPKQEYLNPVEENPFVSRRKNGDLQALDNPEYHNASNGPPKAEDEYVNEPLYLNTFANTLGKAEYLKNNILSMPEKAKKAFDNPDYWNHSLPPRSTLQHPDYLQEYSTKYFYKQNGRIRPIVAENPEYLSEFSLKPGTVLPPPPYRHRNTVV

>  <binder>
23F05 (VHH) VHH: EVQLVESGGGLVQAGGSLRLSCAASGFTFDGYAIGWFRQAPGKEREGVSCISGGDGRSYYADSVKGRFTVSSDNAKNTLYLEMNSLKPEDTAVYYCAVIWGPYCSDSYEYLYEYDYWGQGTQVTVSS

>  <MCF>
95

$$$$
>  <binder>
18G11 (VHH, c-myc, His6-tagged form as expressed; also called HER3MS18G11; HER3MS018G11) VHH: EVQLVESGGGLVQPGGSLRLSCAASGTLFKINAMGWYRQAPGKRRELVALITSSDTTDYAESVEGRFTISRDNTWNAVYLQMNSLKPEDTAVYYCHSDHYSMGVPEKRVIMYGQGTQVTVSS

>  <MCF>
124

$$$$
>  <binder>
04C07 (VHH, also called HER3MS04C07; HER3MS004C07) VHH: EVQLVESGGGLVQAGGSLRLSCAASGFTFSSYPMSWVRQAPGKGPAWVSTVSPGGITTSYADSVKGRFTISRDNAKNTLYLQMNSLKPEDTAVYYCLRDLNNRGQGTQVTVSS

>  <MCF>
105

$$$$
>  <binder>
17C08 (VHH, also called 17C8) VHH: EVQLVESGGGLMQAGDSLRLSCAASGRAFSSYALGWFRRAPGKERECVAATDRLGDNTYFPDSVKGRFTISRDNAKNTLYLQMNNLKPEDTAVYYCAAGAVRYGVSTSPMNYNYWGQGTQVTVSS

>  <MCF>
254

$$$$
